Assignment: determine reported % percentage of mass change, Desorption for the given compounds.
assay-remarks: Hygroscopicity experiment (DVS)
Assay type: physicochemical
measurement-setup: Cycle 1, target relative humidity 60.0%, 25° C.
Answers are plain numbers, in %.

# compound, unit-abbreviation, % percentage of mass change, Desorption
data = [
    ("Cl.N#Cc1cc2n(CC(=O)Nc3ccc(F)cn3)c(=O)c3ccc(C(F)(F)F)nc3n2n1 [Hydrochloride (crystal form A)]", "%", 7.825),
    ("Br.N#Cc1cc2n(CC(=O)Nc3ccc(F)cn3)c(=O)c3ccc(C(F)(F)F)nc3n2n1 [Hydrobromide (crystal form B)]", "%", 4.448),
    ("CCS(=O)(=O)O.N#Cc1cc2n(CC(=O)Nc3ccc(F)cn3)c(=O)c3ccc(C(F)(F)F)nc3n2n1 [Ethanesulfonate (crystal form A)]", "%", 0.334),
    ("CS(=O)(=O)O.N#Cc1cc2n(CC(=O)Nc3ccc(F)cn3)c(=O)c3ccc(C(F)(F)F)nc3n2n1 [Methanesulfonate (crystal form A)]", "%", 0.320),
]

Shift focus to the following entry.
% percentage of mass change, Desorption recorded for this compound, N#Cc1cc2n(CC(=O)Nc3ccc(F)cn3)c(=O)c3ccc(C(F)(F)F)nc3n2n1.O=S(=O)(O)O [Sulfate (crystal form B)] , is 0.540

* * *

assay-remarks: Solubility experiment in different media
Type: physicochemical
measurement-setup: simulated gastric fluid, thermodynamic from solid, USP Buffer pH 2, room temperature
metric-name: solubility at 24 h

solubility at 24 h recorded for this compound, CS(=O)(=O)O.N#Cc1cc2n(CC(=O)Nc3ccc(F)cn3)c(=O)c3ccc(C(F)(F)F)nc3n2n1 [Methanesulfonate (crystal form A)] , is 2.3 µg/mL

* * *

assay-remarks: Solubility experiment in different media
Type: physicochemical
measurement-setup: aqueous buffer, thermodynamic from solid, USP Buffer pH 5, room temperature
metric-name: solubility at 24 h
Could you write the number and then its unit?

solubility at 24 h recorded for this compound, CS(=O)(=O)O.N#Cc1cc2n(CC(=O)Nc3ccc(F)cn3)c(=O)c3ccc(C(F)(F)F)nc3n2n1 [Methanesulfonate (crystal form A)] , is 3 µg/mL

* * *

assay-remarks: Hygroscopicity experiment (DVS)
Type: physicochemical
measurement-setup: Cycle 1, target relative humidity 0.0%, 25° C.
Assignment: determine reported % percentage of mass change, Desorption for the given compounds.
One number for each entry, in %.

Here's what some known entries look like.
# compound, % percentage of mass change, Desorption / %
measured = [
    ("CS(=O)(=O)O.N#Cc1cc2n(CC(=O)Nc3ccc(F)cn3)c(=O)c3ccc(C(F)(F)F)nc3n2n1 [Methanesulfonate (crystal form A)]", "−0.029"),
    ("CCS(=O)(=O)O.N#Cc1cc2n(CC(=O)Nc3ccc(F)cn3)c(=O)c3ccc(C(F)(F)F)nc3n2n1 [Ethanesulfonate (crystal form A)]", "−0.012"),
    ("N#Cc1cc2n(CC(=O)Nc3ccc(F)cn3)c(=O)c3ccc(C(F)(F)F)nc3n2n1.O=S(=O)(O)O [Sulfate (crystal form B)]", "−0.027"),
]

Shift focus to the following entry.
% percentage of mass change, Desorption recorded for this compound, Cl.N#Cc1cc2n(CC(=O)Nc3ccc(F)cn3)c(=O)c3ccc(C(F)(F)F)nc3n2n1 [Hydrochloride (crystal form A)] , is −0.041

* * *

Assignment: determine reported % percentage of mass change, Sorption for the given compounds.
assay-remarks: Hygroscopicity experiment (DVS)
Assay type: physicochemical
measurement-setup: Cycle 1, target relative humidity 60.0%, 25° C.
One number for each entry, in %.

# compound, % percentage of mass change, Sorption [%]
measured = [
    ("Br.N#Cc1cc2n(CC(=O)Nc3ccc(F)cn3)c(=O)c3ccc(C(F)(F)F)nc3n2n1 [Hydrobromide (crystal form B)]", 4.321),
    ("N#Cc1cc2n(CC(=O)Nc3ccc(F)cn3)c(=O)c3ccc(C(F)(F)F)nc3n2n1.O=S(=O)(O)O [Sulfate (crystal form B)]", 0.455),
    ("CCS(=O)(=O)O.N#Cc1cc2n(CC(=O)Nc3ccc(F)cn3)c(=O)c3ccc(C(F)(F)F)nc3n2n1 [Ethanesulfonate (crystal form A)]", 0.297),
    ("Cl.N#Cc1cc2n(CC(=O)Nc3ccc(F)cn3)c(=O)c3ccc(C(F)(F)F)nc3n2n1 [Hydrochloride (crystal form A)]", 7.581),
]

Shift focus to the following entry.
% percentage of mass change, Sorption recorded for this compound, CS(=O)(=O)O.N#Cc1cc2n(CC(=O)Nc3ccc(F)cn3)c(=O)c3ccc(C(F)(F)F)nc3n2n1 [Methanesulfonate (crystal form A)] , is 0.272

* * *

assay-remarks: Hygroscopicity experiment (DVS)
Type: physicochemical
measurement-setup: Cycle 2, target relative humidity 95.0%, 25° C.
metric-name: % percentage of mass change, Desorption (%)
Numbers only, in %.

# compound, value
records = [
    ("N#Cc1cc2n(CC(=O)Nc3ccc(F)cn3)c(=O)c3ccc(C(F)(F)F)nc3n2n1.O=S(=O)(O)O [Sulfate (crystal form B)]", 1.618),
    ("CS(=O)(=O)O.N#Cc1cc2n(CC(=O)Nc3ccc(F)cn3)c(=O)c3ccc(C(F)(F)F)nc3n2n1 [Methanesulfonate (crystal form A)]", 1.076),
    ("CCS(=O)(=O)O.N#Cc1cc2n(CC(=O)Nc3ccc(F)cn3)c(=O)c3ccc(C(F)(F)F)nc3n2n1 [Ethanesulfonate (crystal form A)]", 1.683),
]

Shift focus to the following entry.
% percentage of mass change, Desorption recorded for this compound, Cl.N#Cc1cc2n(CC(=O)Nc3ccc(F)cn3)c(=O)c3ccc(C(F)(F)F)nc3n2n1 [Hydrochloride (crystal form A)] , is 8.047

* * *

assay-remarks: Hygroscopicity experiment (DVS)
Type: physicochemical
measurement-setup: Cycle 2, target relative humidity 95.0%, 25° C.
Text: 7.1 Hygroscopicity experiment of crystal forms of different salts of compound 2-(2-cyano-5-oxo-8-(trifluoromethyl)pyrazolo[1,5-a]pyrido[3,2-e]pyrimidin-4(5H)-yl)-N-(5-fluoropyridin-2-yl)acetamide 7.1.1 Experimental objective: To investigate the hygroscopicity of crystal forms of different salts of compound 2-(2-cyano-5-oxo-8-(trifluoromethyl)pyrazolo[1,5-a]pyrido[3,2-e]pyrimidin-4(5H)-yl)-N-(5-fluoropyridin-2-yl)acetamide at different relative humidity, so as to provide a basis for storage. […]
metric-name: % percentage of mass change, Sorption

Here's what some known entries look like.
# compound, % percentage of mass change, Sorption
records = [
    ("Cl.N#Cc1cc2n(CC(=O)Nc3ccc(F)cn3)c(=O)c3ccc(C(F)(F)F)nc3n2n1 [Hydrochloride (crystal form A)]", "8.047%"),
    ("CS(=O)(=O)O.N#Cc1cc2n(CC(=O)Nc3ccc(F)cn3)c(=O)c3ccc(C(F)(F)F)nc3n2n1 [Methanesulfonate (crystal form A)]", "1.076%"),
    ("N#Cc1cc2n(CC(=O)Nc3ccc(F)cn3)c(=O)c3ccc(C(F)(F)F)nc3n2n1.O=S(=O)(O)O [Sulfate (crystal form B)]", "1.618%"),
]

% percentage of mass change, Sorption recorded for this compound, CCS(=O)(=O)O.N#Cc1cc2n(CC(=O)Nc3ccc(F)cn3)c(=O)c3ccc(C(F)(F)F)nc3n2n1 [Ethanesulfonate (crystal form A)] , is 1.683%

* * *

assay-remarks: Hygroscopicity experiment (DVS)
Type: physicochemical
measurement-setup: Cycle 1, target relative humidity 80.0%, 25° C.
Assign Fulfilled to entries whose % percentage of mass change, Desorption meets or exceeds 0.6%; assign Not fulfilled to the rest.

Solved entries:
# molecule, cat
measured = [
    ("Br.N#Cc1cc2n(CC(=O)Nc3ccc(F)cn3)c(=O)c3ccc(C(F)(F)F)nc3n2n1 [Hydrobromide (crystal form B)]", "Fulfilled"),
    ("CCS(=O)(=O)O.N#Cc1cc2n(CC(=O)Nc3ccc(F)cn3)c(=O)c3ccc(C(F)(F)F)nc3n2n1 [Ethanesulfonate (crystal form A)]", "Fulfilled"),
    ("Cl.N#Cc1cc2n(CC(=O)Nc3ccc(F)cn3)c(=O)c3ccc(C(F)(F)F)nc3n2n1 [Hydrochloride (crystal form A)]", "Fulfilled"),
    ("N#Cc1cc2n(CC(=O)Nc3ccc(F)cn3)c(=O)c3ccc(C(F)(F)F)nc3n2n1.O=S(=O)(O)O [Sulfate (crystal form B)]", "Fulfilled"),
]

Confirm if % percentage of mass change, Desorption reported for the molecule CS(=O)(=O)O.N#Cc1cc2n(CC(=O)Nc3ccc(F)cn3)c(=O)c3ccc(C(F)(F)F)nc3n2n1 [Methanesulfonate (crystal form A)] is 0.6% or above.
Not fulfilled

* * *

assay-remarks: Solubility experiment in different media
Assay type: physicochemical
measurement-setup: thermodynamic from solid, FaSSIF, room temperature
Experimental: The vials were placed on a spin mixer overnight at room temperature. After 24 hours, the sample solution was filtered through a 0.45 μm mixed aqueous fiber membrane. The content of the compound in the filtrate was determined by HPLC. [table]
metric-name: solubility at 24 h

solubility at 24 h recorded for this compound, CS(=O)(=O)O.N#Cc1cc2n(CC(=O)Nc3ccc(F)cn3)c(=O)c3ccc(C(F)(F)F)nc3n2n1 [Methanesulfonate (crystal form A)] , is 7.8 µg/mL
